system: Ste12 (UniProt P13574)
Sequence (P13574 whole entry): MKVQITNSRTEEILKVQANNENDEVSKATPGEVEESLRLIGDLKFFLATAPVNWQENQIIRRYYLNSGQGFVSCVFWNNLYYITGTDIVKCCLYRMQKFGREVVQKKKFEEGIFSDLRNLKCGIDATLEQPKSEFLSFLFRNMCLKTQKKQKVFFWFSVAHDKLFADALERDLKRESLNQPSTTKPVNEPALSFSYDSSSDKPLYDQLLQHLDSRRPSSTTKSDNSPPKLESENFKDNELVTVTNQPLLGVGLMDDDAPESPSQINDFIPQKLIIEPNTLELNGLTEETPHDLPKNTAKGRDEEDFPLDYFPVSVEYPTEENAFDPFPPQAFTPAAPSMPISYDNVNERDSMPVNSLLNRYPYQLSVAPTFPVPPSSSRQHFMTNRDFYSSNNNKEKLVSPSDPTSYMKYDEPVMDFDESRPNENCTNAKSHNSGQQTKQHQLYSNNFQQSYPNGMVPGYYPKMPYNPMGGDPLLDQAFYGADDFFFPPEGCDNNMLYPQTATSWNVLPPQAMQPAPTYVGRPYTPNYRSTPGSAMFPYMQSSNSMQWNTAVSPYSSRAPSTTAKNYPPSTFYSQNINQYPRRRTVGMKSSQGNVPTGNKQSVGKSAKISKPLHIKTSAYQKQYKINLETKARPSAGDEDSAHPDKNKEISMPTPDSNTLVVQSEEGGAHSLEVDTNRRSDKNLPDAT
protocol summary: PBM E-score (8-mer binding enrichment) (E-score (-0.5 to 0.5)); higher = stronger / more preferred TF binding
conditions used: protein concentration: 200 nM; construct: GST-DNA-binding domain
Whole data set: some 33,000 sequences, median “E-score (-0.5 to 0.5)” near -0.01, cut for the highest 2% near 0.26. Shown is part of a subset that was picked to be rich in the highest values.
metric name: PBM E-score
Answers are plain numbers.

Completed entries (count: 5):
AGGGTGGA -0.218
AGGGTGGG 0.35
TGTTACAA 0.387
TAAATGAA 0.185
CAATGTGC -0.133

// for each sequence in input: emit PBM E-score
1. CGTTACAC
2. AGGGGAGG
3. GGTTACAA
4. TCTTACAA
5. AGGGGAGA
6. AGGAGGGA

[0.122, 0.348, 0.284, 0.0356, -0.0864, -0.0567]

Provide PBM E-score for all items below, preserving their order.
1. CGTTATAA
2. GAAATTAC

[0.143, 0.176]

Look up PBM E-score for the entries below, preserving their order.
1. CTCTAGAG
2. AAAATGAT
3. AGTTACAA
4. CGAATGAA

[-0.162, 0.317, 0.157, 0.084]

----------
For each entry below, report its PBM E-score value.
system: Ste12 (UniProt P13574)
protocol summary: PBM E-score (8-mer binding enrichment) (E-score (-0.5 to 0.5)); higher = stronger / more preferred TF binding
conditions used: protein concentration: 200 nM; construct: GST-DNA-binding domain
Whole data set: some 33,000 sequences, median “E-score (-0.5 to 0.5)” near -0.01, cut for the highest 2% near 0.26. The list comes from a sample in which the highest values are over-represented; it also holds close analogues and randomly drawn sequences.

These recorded examples may help you get a feel for the data.
ATGTTTGC 0.0377
AGTTTCCG 0.148
ACTTTCAG 0.0489
GTTTTTGA 0.236
CCTTTCAG -0.115

Below is a list of sequences. For each, state its recorded PBM E-score.
1. CCGTTTGA
2. CGTTTCAG

0.056
0.482

----------
system: Ste12 (UniProt P13574)
protocol summary: PBM E-score (8-mer binding enrichment) (E-score (-0.5 to 0.5)); higher = stronger / more preferred TF binding
conditions used: protein concentration: 200 nM; construct: GST-DNA-binding domain
The full ranking holds about 33,000 sequences; the median of “E-score (-0.5 to 0.5)” is about -0.01, and the highest 2% start at about 0.26. Many of the other results were omitted from the sample, so the highest values are more common in it than they were.
metric name: PBM E-score
Give bare numbers.

Consider the reported PBM E-score for these sequences:
TCACTTAA 0.191
AGCACAAT -0.16
ATCGCGCG 0.0537
AACCCTGA 0.305

State recorded PBM E-score for all listed sequences.
1. AAAGGGAT
2. ATTATCCC
3. CGTTTTCA
4. ATAAACCG

1: 0.00067; 2: 0.0652; 3: 0.132; 4: 0.0871

Quickly give me recorded PBM E-score for `CACCCTGA` -0.00848

----------
system: Ste12 (UniProt P13574)
protocol summary: PBM E-score (8-mer binding enrichment) (E-score (-0.5 to 0.5)); higher = stronger / more preferred TF binding
conditions used: protein concentration: 200 nM; construct: GST-DNA-binding domain
Over roughly 33,000 sequences, “E-score (-0.5 to 0.5)” has its median near -0.01; the highest 2% begin near 0.26. The list comes from a sample in which the highest values are over-represented; it also holds close analogues and randomly drawn sequences.
metric name: PBM E-score
One number for each entry.

ACAAAAAC 0.201
CGAAACGA 0.205

Then this sequence:
Give a short answer stating reported PBM E-score for `TCAAAAGA` . 0.202

----------
Assign PBM E-score to each entry below.
system: Ste12 (UniProt P13574)
protocol summary: PBM E-score (8-mer binding enrichment) (E-score (-0.5 to 0.5)); higher = stronger / more preferred TF binding
conditions used: protein concentration: 200 nM; construct: GST-DNA-binding domain
The full ranking holds about 33,000 sequences; the median of “E-score (-0.5 to 0.5)” is about -0.01, and the highest 2% start at about 0.26. Many of the other results were omitted from the sample, so the highest values are more common in it than they were.
One number for each entry.

Below are worked cases with known answers.
GAGGGGAA 0.0394
ATATTATC 0.181
ATTGGGAA 0.0116

Dear colleague, could you send me PBM E-score for each of the items below? Thanks.
1. CATCCCAA
2. CAAACCGC

[0.0892, 0.00675]

The following sequences each have a reported value; give each one's PBM E-score.
1. GAAACCAC
2. TAATTAAA
3. GGTCCAGA
4. GGCCACAA
5. AACCACTA
6. ATAAAAGG

0.164
0.173
-0.0878
0.0783
-0.00019
0.0863

Lab note: each sequence below needs its PBM E-score filled in.
1. ATATTATG
2. GATGAGTA
3. TACTTCAA
4. TTATTAAA

1: 0.303; 2: 0.0183; 3: 0.0645; 4: 0.321

----------
system: Ste12 (UniProt P13574)
protocol summary: PBM E-score (8-mer binding enrichment) (E-score (-0.5 to 0.5)); higher = stronger / more preferred TF binding
conditions used: protein concentration: 200 nM; construct: GST-DNA-binding domain
The full ranking holds about 33,000 sequences; the median of “E-score (-0.5 to 0.5)” is about -0.01, and the highest 2% start at about 0.26. This excerpt belongs to a sample that is enriched for the highest values.
metric name: PBM E-score
Give bare numbers.

Consider the following illustrative entries.
GGAAACAA 0.13
ACCTAAAT 0.11
CGTGAAAG 0.0979
GGTGAAAA 0.0914
ATTTCAAG 0.0717

For each of the items listed, what is its PBM E-score?
1. CTGTAAAA
2. AGTGAAAT
3. AGTGAAAC
4. CCAAACCA
5. CAGTTAAA
6. ATGGACCG
7. CGTGAAAA
8. CGTGAAAC

[0.219, 0.0994, 0.394, 0.0357, -0.00288, -0.00313, 0.22, 0.364]

Please state PBM E-score for every sequence in the list that follows.
1. GTGTAAAA
2. ATGTAAAT
3. TCGTAAAA

1: 0.15; 2: 0.113; 3: 0.279

Would you mind giving PBM E-score for every sequence in the list below?
1. GCCAAATA
2. CAGCGATC
3. CTTGAAAC
4. ATTGAAAC
5. ATTGAGAC
6. ACCGGTGC
7. CTTTCAGA

0.101
-0.00075
0.479
0.398
0.122
-0.0741
0.211

----------
system: Ste12 (UniProt P13574)
protocol summary: PBM E-score (8-mer binding enrichment) (E-score (-0.5 to 0.5)); higher = stronger / more preferred TF binding
conditions used: protein concentration: 200 nM; construct: GST-DNA-binding domain
Over roughly 33,000 sequences, “E-score (-0.5 to 0.5)” has its median near -0.01; the highest 2% begin near 0.26. Only a selection was taken, and the highest values are over-represented in it overall.
metric name: PBM E-score
Numbers only.

Please report PBM E-score for every entry that follows.
1. CCCCGTTA
2. AGCCATGG

1: -0.00038; 2: -0.192

// batch mode: one PBM E-score value per listed entry
1. AATGAAGA
2. CTTACAAA
3. GTTAAAAC
4. AATGAAGC
5. GTTACAAA

1: 0.304; 2: 0.143; 3: 0.174; 4: -0.0558; 5: 0.384

----------
Exercise: state measured PBM E-score for each of the sequences provided.
system: Ste12 (UniProt P13574)
protocol summary: PBM E-score (8-mer binding enrichment) (E-score (-0.5 to 0.5)); higher = stronger / more preferred TF binding
conditions used: protein concentration: 200 nM; construct: GST-DNA-binding domain
The full ranking holds about 33,000 sequences; the median of “E-score (-0.5 to 0.5)” is about -0.01, and the highest 2% start at about 0.26. The sample holds the highest values, similar sequences and a random draw of the others, so the mix is not that of the screen.
Give bare numbers.

Before answering, review these 3 worked examples.
AAGGTTCT 0.0379
GCGCTTCC -0.0472
ATGGTAGC -0.0629

Please give PBM E-score for each item listed below.
1. ACTACATG
2. CAGCGACC

1. 0.0147
2. -0.0234

----------
Task for the reader: assign each of the following sequences its reported PBM E-score.
system: Ste12 (UniProt P13574)
protocol summary: PBM E-score (8-mer binding enrichment) (E-score (-0.5 to 0.5)); higher = stronger / more preferred TF binding
conditions used: protein concentration: 200 nM; construct: GST-DNA-binding domain
Whole data set: some 33,000 sequences, median “E-score (-0.5 to 0.5)” near -0.01, cut for the highest 2% near 0.26. This is one part of a sample in which the highest values are shown more often than they occur.
Numbers only.

// known answers, use as guide
CTCATTAA 0.111
ATCATTAG 0.0954
ATTTAAGG 0.00576
ATCACCGG -0.0135
ATGTTTTC 0.172
GACATTAA 0.173

Provide each entry's PBM E-score from the list below.
1. ATTTAATG
2. GGGTTTTA
3. CTGTTTAA
4. ATGTTTTA
5. AACATTTC
6. GTGTTTTA

[0.272, 0.217, 0.22, 0.374, 0.0303, 0.405]

Batch: PBM E-score for all items listed.
1. AAAACGGA
2. CTCGTGAC

0.273
0.0961
